Data origin: patent US8927500B2

biological target: MDM2 (Homo sapiens); assay: Competitive fluorescence polarization assay for MDM2; assay type: binding; settings: competitive FP assay, MDM2; read-out: Ki (MDM2)
Sequence (Q00987 1-125): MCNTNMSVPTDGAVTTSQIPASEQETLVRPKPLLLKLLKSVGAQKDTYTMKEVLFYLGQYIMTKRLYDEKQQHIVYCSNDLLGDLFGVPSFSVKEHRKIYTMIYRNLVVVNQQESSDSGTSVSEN
pKi: −log10 of the molar value. Where a SMILES comes first, the peptide text is derived from it. Bridges are numbered along the chain shown (N, C = ends). [ ]: non-standard residue; d: D form. R8 = C=CCCCCCC[C@@](C)(N)C(=O)O; Chg = N[C@H](C(=O)O)C1CCCCC1; S5 = C=CCCC[C@](C)(N)C(=O)O; Nle = CCCC[C@H](N)C(=O)O
endpoint: pKi

CCCC[C@H](NC(=O)[C@H](Cc1c[nH]c2ccccc12)NC(=O)[C@H](C)NC(=O)[C@]1(C)CCCC=CCCCCCC[C@@](C)(NC(=O)[C@H](Cc2ccccc2)NC(=O)[C@@H](NC(=O)[C@H](CC(C)C)NC(C)=O)[C@@H](C)O)C(=O)N[C@@H](CCC(=O)O)C(=O)N[C@@H](Cc2ccc(O)cc2)C(=O)N[C@@H](Cc2c[nH]c3ccccc23)C(=O)N[C@@H](C)C(=O)N[C@@H](CCC(N)=O)C(=O)N[C@@H](CC(C)C)C(=O)N1)C(=O)N[C@H](C)C(N)=O [compound 277] (Ac-LTF[R8]EYWAQL[S5]AW[Nle][dA]-NH2; staple 4-11)    > 8.00

## Input For CC(=O)N[C@@H](CC(C)C)C(=O)N[C@H](C(=O)N[C@@H](Cc1ccccc1)C(=O)N[C@]1(C)CCCCCCC=CCCC[C@@](C)(C(=O)N[C@@H](CO)C(=O)N[C@@H](C)C(=O)N[C@H](C(N)=O)C2CCCCC2)NC(=O)[C@H](CC(C)C)NC(=O)[C@H](CCC(N)=O)NC(=O)[C@H](C)NC(=O)[C@H](Cc2c[nH]c3ccccc23)NC(=O)[C@H](Cc2ccc(O)cc2)NC(=O)[C@H](C)NC1=O)[C@@H](C)O [compound 9] (Ac-LTF[R8]AYWAQL[S5]SA[Chg]-NH2; staple 4-11) , what is its reported pKi?
## Output 7.00 to 8.00
